Below: a set of entries, each annotated with reported polymerase ribozyme fitness (log ratio).
B1: TPR 5TU (parent)
chain: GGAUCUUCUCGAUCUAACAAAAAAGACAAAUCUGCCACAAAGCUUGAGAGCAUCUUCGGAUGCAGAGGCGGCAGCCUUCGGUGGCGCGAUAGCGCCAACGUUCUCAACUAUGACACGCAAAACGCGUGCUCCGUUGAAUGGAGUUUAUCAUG

variants of: B1; assay: polymerase ribozyme fitness, log enrichment relative to wild type (log ratio); higher = more active; in vitro selection for triplet polymerase activity
Fewer inactive variants are shown than the library holds.
# print the numeric value only

// known answers, use as guide
C93U C118U = -1.84
G92U C116U = 0.0946
A41C A120U = -0.45
G70A A122U = -3.6
A52U U53A = -1.23
C35G A89C C96G = -4.02

// returns reported polymerase ribozyme fitness (log ratio) for input C18G U56G C85U
-0.856

// returns reported polymerase ribozyme fitness (log ratio) for input C76A U104C
-3.57

// returns reported polymerase ribozyme fitness (log ratio) for input G62A C85A A121U U134C A137G
-3.02

// returns reported polymerase ribozyme fitness (log ratio) for input `A89U`
-0.292

// returns reported polymerase ribozyme fitness (log ratio) for input G48A U55G A142C
-2.84
